# T/C per entry
System: BDF1 mice, P388 leukemia ip, median survival T/C
experimental-details: NCI In Vivo Anticancer Drug Screen. Data for tumor model P388 Leukemia (intraperitoneal) in B6D2F1 (BDF1) mice
condition-parameters: endpoint: median survival time; dose: 200.0 mg/kg/injection; schedule: Q01DX009 (ip); vehicle: saline; higher = longer survival
Method: The antitumor activity of compounds was measured in mice bearing transplantable tumors. Survival or tumor size were measured and the results are expressed as the measurement made in the treated group (T) divided by the measurement made in the vehicle treated control group (C). The tumor model used in this assay is P388 Leukemia (intraperitoneal) in B6D2F1 (BDF1) mice
Inconclusive results and toxic doses are left out.
property: T/C

> print(dat)
                              smiles.data  property  recorded.measurement
1                        OCCCN1CNC(=S)NC1       T/C      108 % of control
2  Oc1cc(O)c(CN(CCCl)CCCl)cc1CN(CCCl)CCCl       T/C      177 % of control
3                    CC(C)C[C@H](O)C(=O)O       T/C       95 % of control
4                           CCOC1=NCCCCC1       T/C       98 % of control

----------
Test system: BDF1 mice, P388 leukemia ip, median survival T/C
experimental-details: NCI In Vivo Anticancer Drug Screen. Data for tumor model P388 Leukemia (intraperitoneal) in B6D2F1 (BDF1) mice
condition-parameters: endpoint: median survival time; dose: 50.0 mg/kg/injection; schedule: Q01DX005 (ip); vehicle: saline with Tween-80; higher = longer survival
Toxic doses and inconclusive results are not listed.
property: T/C

> print(dat)
                                    compound  recorded.measurement
 1       COC(=O)c1cc(=O)nc(N/N=C/c2ccccc2)s1      109 % of control
 2                          Cc1ccc(NO)c(C)c1      113 % of control
 3  CC(Oc1ccc2ccccc2c1I)C(=O)O (configuration not stated)       91 % of control
 4  CC(C)(C)C1CCC(C#N)(N=Nc2ccccc2)CC1 (configuration not stated)      102 % of control
 5                         FC(F)(F)COP1SCCS1       97 % of control
 6     COc1ccc(-c2nnc(C)nc2-c2ccc(OC)cc2)cc1       96 % of control
 7  CN(C)Cc1ccc(-c2cc3onc(-c4ccccc4)c3c(=O)n2C)cc1      108 % of control
 8             COC(=O)c1cc(=O)nc(NN=C(C)C)s1       91 % of control
 9          COC(=O)c1cc(=O)nc(NN=C2CCCCC2)s1       99 % of control
10  CCN(CC)CCOC(=O)c1ccc([N+](=O)[O-])c2ccccc12       98 % of control
11  CN1C(=O)c2ccccc2CC12c1ccccc1C(=O)N2C (configuration not stated)       86 % of control
12  O=C(O)CS(=O)c1ccc2c3c(cccc13)C(=O)c1ccccc1-2 (configuration not stated)       87 % of control
